# assaySystem: IDH1 R132C (Homo sapiens (Human), UniProt O75874, R132C)
# Sequence (O75874 whole entry R132C): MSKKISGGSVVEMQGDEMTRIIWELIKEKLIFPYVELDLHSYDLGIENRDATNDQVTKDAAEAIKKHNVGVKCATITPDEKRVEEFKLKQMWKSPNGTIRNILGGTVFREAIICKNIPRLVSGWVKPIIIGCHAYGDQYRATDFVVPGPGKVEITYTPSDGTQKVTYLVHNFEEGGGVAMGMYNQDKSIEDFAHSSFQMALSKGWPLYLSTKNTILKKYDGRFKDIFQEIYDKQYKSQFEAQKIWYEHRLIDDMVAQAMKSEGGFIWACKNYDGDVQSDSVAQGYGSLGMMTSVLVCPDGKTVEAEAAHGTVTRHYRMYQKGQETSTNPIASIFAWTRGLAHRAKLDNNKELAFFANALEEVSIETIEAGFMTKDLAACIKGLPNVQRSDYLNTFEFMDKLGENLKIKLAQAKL
# assayDetails: Biochemical assay for IDH1-R132C mutant enzyme (conversion of αKG to 2HG, RapidFire MS)
# condition: mean ± SEM; 40 minutes
experimentalEndpoint: IC50

What value of IC50 on IDH1 R132C (Homo sapiens (Human), UniProt O75874, R132C) does C=CC(=O)N1CCN(C(CC2CC2)c2ccc([C@H](C)Nc3nccc(N4C(=O)OC[C@@H]4C(C)C)n3)cc2)CC1 (single isomer, unassigned) [Example 20] have?
< 5.08 nM

What value of IC50 on IDH1 R132C (Homo sapiens (Human), UniProt O75874, R132C) does C=CC(=O)N1CCN(C(CC2CC2)c2ccc([C@H](C)Nc3nccc(N4C(=O)OC[C@@H]4C(C)C)n3)cc2)CC1 (single isomer, unassigned) [Example 21] have?
< 5.08 nM

What value of IC50 on IDH1 R132C (Homo sapiens (Human), UniProt O75874, R132C) does C=CC(=O)N1CCN(C(CC2CC2)c2ccc([C@H](C)Nc3nc(F)cc(N4C(=O)OCC4(C)C)n3)cc2)CC1 (single isomer, unassigned) [Example 23] have?
< 5.08 nM

All figures here come from patent US10696665B2.
